tested on: seven gram-positive or -negative strains; experiment: Antibacterial Test 2: MIC against each of the seven strains; assay type: cell-based; conditions: each of S. aureus, M. luteus, E. faecalis, B. subtilis, E. coli, K. pneumoniae, P. aeruginosa; read-out: MIC of each of the above-mentioned seven strains
Each entry below carries its reported MIC.

[
  {
    "MOLECULE": "CC(C)[C@H](NC(=O)OC(C)(C)C)C(=O)N1CCN(c2ccc(C(=O)CSc3ccnc4ccccc34)cc2)CC1 [Compound 79]",
    "MIC": "> 100 µg/mL"
  },
  {
    "MOLECULE": "O=C(CSc1ccnc2ccccc12)c1ccc(N2CCN(C(=O)OCC(Cl)(Cl)Cl)CC2)cc1 [Compound 81]",
    "MIC": "> 100 µg/mL"
  },
  {
    "MOLECULE": "O=C(CSc1ccnc2ccccc12)c1ccc(N2CCN(C(=O)OCc3ccccc3)CC2)cc1 [Compound 78]",
    "MIC": "> 100 µg/mL"
  },
  {
    "MOLECULE": "CC(C)(C)OC(=O)N1CCC(Nc2ccc(C(=O)CSc3ccnc4ccccc34)cc2Br)C1 (stereo not shown) [Compound 65]",
    "MIC": "> 100 µg/mL"
  }
]

====

Parameter MIC, tested on E. faecalis RIMD 3336001, listed per item.

[
  {
    "COMPOUND": "CC1(C)S[C@@H]2[C@H](NC(=O)[C@H](N)c3ccc(O)cc3)C(=O)N2[C@H]1C(=O)O [amoxicillin, reference compound]",
    "MIC": "0.2 µg/mL"
  },
  {
    "COMPOUND": "CN(C)c1ccc(CCSc2ccnc3ccccc23)cc1 [Compound 27]",
    "MIC": "> 100 µg/mL"
  },
  {
    "COMPOUND": "CC[C@H]1OC(=O)[C@H](C)[C@@H](O[C@H]2C[C@@](C)(OC)[C@@H](O)[C@H](C)O2)[C@H](C)[C@@H](O[C@@H]2O[C@H](C)C[C@H](N(C)C)[C@H]2O)[C@](C)(OC)C[C@@H](C)C(=O)[C@H](C)[C@@H](O)[C@]1(C)O [clarithromycin, reference compound]",
    "MIC": "0.39 µg/mL"
  },
  {
    "COMPOUND": "CC(C)(C)c1ccc(C(=O)CSc2ccnc3ccccc23)cc1 [Compound 5]",
    "MIC": "> 100 µg/mL"
  },
  {
    "COMPOUND": "O=C(CSc1ccnc2ccccc12)c1ccc(N2CCOCC2)c(Br)c1 [Compound 10]",
    "MIC": "> 100 µg/mL"
  },
  {
    "COMPOUND": "CC(C)(C)OC(=O)N1CCN(c2ccc(C(=O)CSc3ccnc4ccccc34)cc2)CC1 [Compound 49]",
    "MIC": "> 100 µg/mL"
  },
  {
    "COMPOUND": "CN(C)c1ccc(C(=O)CSc2ccnc3ccccc23)cc1 [Compound 26]",
    "MIC": "> 100 µg/mL"
  },
  {
    "COMPOUND": "O=C(CSc1ccnc2ccccc12)c1ccc(OCc2ccccc2)cc1 [Compound 1]",
    "MIC": "> 100 µg/mL"
  },
  {
    "COMPOUND": "O=C(CSc1ccnc2ccccc12)c1ccc2ccccc2c1 [Compound 2]",
    "MIC": "> 100 µg/mL"
  },
  {
    "COMPOUND": "CSc1ccc2c(SCc3ccc(N)cc3)ccnc2c1 [Compound 34]",
    "MIC": "> 100 µg/mL"
  }
]

====

Parameter MIC, tested on E. coli NIHJ JC-2, listed per item.
EXPERIMENTAL_ENDPOINT: MIC

[
  {
    "COMPOUND": "CC[C@H]1OC(=O)[C@H](C)[C@@H](O[C@H]2C[C@@](C)(OC)[C@@H](O)[C@H](C)O2)[C@H](C)[C@@H](O[C@@H]2O[C@H](C)C[C@H](N(C)C)[C@H]2O)[C@](C)(OC)C[C@@H](C)C(=O)[C@H](C)[C@@H](O)[C@]1(C)O [clarithromycin, reference compound]",
    "TARGET_OF_ASSAY": "E. coli NIHJ JC-2",
    "EXPERIMENTAL_ENDPOINT": "MIC",
    "REPORTED_VALUE": "100 µg/mL"
  },
  {
    "COMPOUND": "CSc1ccc2c(SCc3ccc(N(C)C)cc3)ccnc2c1",
    "TARGET_OF_ASSAY": "E. coli NIHJ JC-2",
    "EXPERIMENTAL_ENDPOINT": "MIC",
    "REPORTED_VALUE": "> 100 µg/mL"
  },
  {
    "COMPOUND": "CC(C)(C)OC(=O)N1CCN(c2ccc(C(=O)CSc3ccnc4ccccc34)cc2)CC1",
    "TARGET_OF_ASSAY": "E. coli NIHJ JC-2",
    "EXPERIMENTAL_ENDPOINT": "MIC",
    "REPORTED_VALUE": "> 100 µg/mL"
  },
  {
    "COMPOUND": "CC1(C)S[C@@H]2[C@H](NC(=O)[C@H](N)c3ccc(O)cc3)C(=O)N2[C@H]1C(=O)O [amoxicillin, reference compound]",
    "TARGET_OF_ASSAY": "E. coli NIHJ JC-2",
    "EXPERIMENTAL_ENDPOINT": "MIC",
    "REPORTED_VALUE": "3.13 µg/mL"
  },
  {
    "COMPOUND": "O=C(CSc1ccnc2ccccc12)c1ccc(N2CCOCC2)c(Br)c1",
    "TARGET_OF_ASSAY": "E. coli NIHJ JC-2",
    "EXPERIMENTAL_ENDPOINT": "MIC",
    "REPORTED_VALUE": "> 100 µg/mL"
  },
  {
    "COMPOUND": "O=C(CSc1ccnc2ccccc12)c1ccc(OCc2ccccc2)cc1",
    "TARGET_OF_ASSAY": "E. coli NIHJ JC-2",
    "EXPERIMENTAL_ENDPOINT": "MIC",
    "REPORTED_VALUE": "> 100 µg/mL"
  }
]
